koff values for the binders below.
- Target or test system: T1, human IL-2Rβ (human, UniProt P14784 27-240, limits assumed)
- T1 construct: Recombinant protein, coated (ELISA) or immobilised on CM5 (SPR); also called hu IL-2R; interleukin 2 receptor β-chain
- T1 sequence: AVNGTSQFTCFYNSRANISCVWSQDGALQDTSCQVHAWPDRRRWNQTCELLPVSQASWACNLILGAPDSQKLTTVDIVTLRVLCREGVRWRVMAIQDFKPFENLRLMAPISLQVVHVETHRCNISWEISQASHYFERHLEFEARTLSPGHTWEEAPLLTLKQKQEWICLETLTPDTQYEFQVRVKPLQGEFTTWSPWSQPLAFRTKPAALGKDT
- Method notes: SPR (Biacore), P.E. off-rate ranking
Measurement label: koff (s⁻¹)

>  <Binder>
FJ1427_P035MP03E06 (VHH, soluble VHH in periplasmic extract; also called clone nr) VHH: QVQLVESGGGLVQAGRSLGLSCAASGFTFDNYAMSWVRQAPGKGLEWVSSITGAGRGTHYADSVKGRFTISRDNAKNTLYLQMNSLKPEDTAVYYCAKYSSSTYYPPTPARGTDYRGPGTQVTVSS

>  <Scale unit>
s⁻¹

>  <Reported>
0.00116

$$$$
>  <Binder>
FJ1427 P035MP03C11 (VHH, soluble VHH in periplasmic extract; also called clone nr) VHH: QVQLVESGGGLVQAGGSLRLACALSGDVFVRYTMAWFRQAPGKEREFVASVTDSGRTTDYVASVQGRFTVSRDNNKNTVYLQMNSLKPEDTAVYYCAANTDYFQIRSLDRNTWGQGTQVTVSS

>  <Scale unit>
s⁻¹

>  <Reported>
0.000514

$$$$
